# Test system: HL-60(TB) leukemia
# protocol_details: NCI-60 one-dose screen, 48 h (100 = growth as untreated, 0 = no growth, -100 = all killed)
# test_conditions: 10 µM unless noted
The panel holds about 83,000 compounds, 20% with a hit somewhere; the sample as a whole holds those more often.
I'd appreciate it if you marked entries fulfilled when growth is lower than 50% and not fulfilled when it is not.

Ask | # strict comparison: is reported growth < 50%? input = CC1(C)CC[C@]2(C(=O)O)CC[C@]3(C)C(=CCC4[C@@]5(C)C[C@@H](O)[C@@H]6OC(c7ccccc7F)OC[C@@]6(C)C5CC[C@]43C)C2C1 (stereo partly specified)
Reply | fulfilled

###

# Test system: HL-60(TB) leukemia
# protocol_details: NCI-60 one-dose screen, 48 h
# test_conditions: 10 µM unless noted
This is part of a sample that, as a whole, favours compounds with a hit. Of some 83,000 tested, about 20% had one in any assay. Activity calls are given as the source filed them. Rule for the calls: active = growth percent below 10; inactive = the rest.
Allowed answers: active, inactive

- molecule: "O=C(Nc1cccc(C(F)(F)F)c1)c1cncc(C#Cc2cnc3ccc(N4CCOCC4)nn23)c1"
  answer_label: "active"

Ask | Returns: the outcome recorded for CN(C)c1nc(NCCNS(=O)(=O)c2ccc(C3=Nc4c(N)nc(N)nc4NC(c4ccc(F)cc4)C3)cc2)nc(Nc2ccc(F)cc2)n1 (centres undefined) in this assay.
Reply | active

Ask | Returns: the outcome recorded for "Cn1c(O)c(N=Nc2nc(-c3cc4ccccc4oc3=O)cs2)c2cc(Br)ccc21" in this assay.
Reply | inactive

Ask | Returns: the outcome recorded for "Cc1ccc(-c2nc(Nc3ccccc3S(N)(=O)=O)c3ccccc3n2)cc1" in this assay.
Reply | inactive

Ask | Returns: the outcome recorded for "CC(C)CCSc1nc(NC2CC2)c(C#N)c(-c2ccc(C(C)C)cc2)n1" in this assay.
Reply | inactive

Ask | Returns: the outcome recorded for C=C1CCC2C3(C)COC(c4cc(F)cc(F)c4)OC3CCC2(C)C1CC(O)C1=CCOC1=O (centres undefined) in this assay.
Reply | inactive

###

# Test system: HL-60(TB) leukemia
# protocol_details: NCI-60 one-dose screen, 48 h (100 = growth as untreated, 0 = no growth, -100 = all killed)
# test_conditions: 10 µM unless noted
The panel holds about 83,000 compounds, 20% with a hit somewhere; the sample as a whole holds those more often.
measured_metric: growth (%)
Give the number; % is assumed, so skip it.

Here are 4 compounds together with their reported answers.
- record_smiles: "COc1ccc(-c2c(N)c(=O)n(C)c3ccccc23)cc1"
  unit_tag: "%"
  growth: 79.3
- record_smiles: "COc1ccc2[nH]cc(-c3cc4nc(-c5cn(C)c6ncc(Br)cc56)cc(N)n4n3)c2c1"
  unit_tag: "%"
  growth: -61.2
- record_smiles: "COc1ccc2nc(Cl)c(-c3cc(-c4ccccc4)nc(N)n3)cc2c1"
  unit_tag: "%"
  growth: -37.5
- record_smiles: "COC1=C[C@]23CCC(=O)N2CCc2cc4c(cc2[C@@H]3[C@@H]1OC(=O)[C@H](C)O)OCO4"
  unit_tag: "%"
  growth: -28.6

compound "Cc1ccc(Nc2nnc(-c3c[nH]c4ccccc34)o2)c(C)c1" , growth observed: 1.4

###

# Tested on: CAKI-1 renal
# protocol_details: NCI-60 one-dose screen, 48 h (100 = growth as untreated, 0 = no growth, -100 = all killed)
# test_conditions: 10 µM
Compounds without any hit were thinned out: in the full panel of roughly 83,000, 20% have a hit. The source made the active and inactive calls. The calls were made as follows: active = growth percent below 10; inactive = the rest.
measured_metric: growth

Here are 10 compounds together with their reported answers.
- compound: "CC[C@]12C=CCN3CC[C@@]4(c5ccc(OC)cc5N(C)[C@H]4[C@@](O)(C(=O)OC)[C@@H]1OC(=O)CCCC[P+](C1CCCCC1)(C1CCCCC1)C1CCCCC1)[C@@H]32"
  growth: "-24.1% (active)"
- compound: "O=C(/C=C/c1ccc(Br)cc1)c1nc2ccccc2n1Cc1ccc(Br)cc1"
  growth: "16% (inactive)"
- compound: "CC12OOC(C)(OO1)C2CCC(=O)NCCCNc1ccnc2cc(Cl)ccc12 (stereo not drawn)"
  growth: "-93.3% (active)"
- compound: "COc1ccc(/C=C/C(=O)c2nc3ccccc3n2Cc2ccc(Br)cc2)cc1"
  growth: "68% (inactive)"
- compound: "C#CC[Se]C(=O)c1ccc2n[se]nc2c1"
  growth: "71.3% (inactive)"
- compound: "COc1ccc2cc([C@H](C)C(=O)[Se]CCC#N)ccc2c1"
  growth: "-94% (active)"
- compound: "O=C(/C=C/c1ccc(Cl)cc1Cl)c1nc2ccccc2n1Cc1ccc(Br)cc1"
  growth: "65.1% (inactive)"
- compound: "C=CC[Se]C(=O)c1ccc(C(=O)[Se]CC=C)s1"
  growth: "-83.9% (active)"
- compound: "COC(=O)CCn1c(-c2ccc(-n3cc(-c4ccc(O[C@H]5O[C@@H]6OC7(C)CC[C@H]8[C@H](C)CC[C@@H]([C@H]5C)[C@@]68OO7)cc4)nn3)cc2)nc2ccccc21"
  growth: "13.7% (inactive)"
- compound: "CC1=C(C=O)C2=C(C)C3(CC3)[C@@](C)(O)C(=O)C2=C1"
  growth: "31.7% (inactive)"

compound "COC(=O)C[C@](O)(CCC(C)C)C(=O)O[C@@H]1C(OC)=C[C@]23CCCN2CCc2cc4c(cc2[C@H]13)OCO4" , growth observed: -13.1% (active)

compound O=C([Se]C1C=CCCC1)c1ccc(C(=O)[Se]C2C=CCCC2)s1 (stereo not drawn) , growth observed: -61.6% (active)

compound "C#CCCCN(CCNc1ccnc2cc(Cl)ccc12)C(=O)CCC(=O)O[C@@H]1O[C@@H]2OC3(C)CC[C@H]4[C@H](C)CC[C@@H]([C@H]1C)[C@@]24OO3" , growth observed: 41.4% (inactive)

###

# System: DU-145 prostate
# protocol_details: NCI-60 one-dose screen, 48 h (100 = growth as untreated, 0 = no growth, -100 = all killed)
# test_conditions: 10 µM
This is part of a sample that, as a whole, favours compounds with a hit. Of some 83,000 tested, about 20% had one in any assay.
I'd appreciate it if you marked entries True when growth is lower than 10% and False when it is not.

Examples from the recorded data:
- compound: "CC[C@]12C=CCN3CC[C@@]4(c5ccc(OC)cc5N(C)[C@H]4[C@@](O)(C(=O)OC)[C@@H]1OC(=O)CCC[P+](c1ccc(F)cc1)(c1ccc(F)cc1)c1ccc(F)cc1)[C@@H]32"
  answer_label: "False"
- compound: "CC1=C(CCC=NNC(N)=O)C2=C(C)C3(CC3)[C@@](C)(O)C(=O)C2=C1"
  answer_label: "True"
- compound: "Cc1c2oc3c(C)ccc(C(=O)N[C@@H]4C(=O)N[C@H](C(C)C)C(=O)N5CCC[C@H]5C(=O)N(C)CC(=O)N(C)[C@@H](C(C)C)C(=O)OC4C)c3nc-2c(C(=O)N[C@@H]2C(=O)N[C@H](C(C)C)C(=O)N3CC(=O)C[C@H]3C(=O)N(C)CC(=O)N(C)[C@@H](C(C)C)C(=O)OC2C)c(N)c1=O (stereo not given in full)"
  answer_label: "False"
- compound: "CC[C@]12C=CCN3CC[C@@]4(c5ccc(OC)cc5N(C)[C@H]4[C@@](O)(C(=O)OC)[C@@H]1OC(=O)CCC[P+](c1ccc(C)cc1)(c1ccc(C)cc1)c1ccc(C)cc1)[C@@H]32"
  answer_label: "True"

Turning now to a further compound:
Ask | # strict comparison: is reported growth < 10%? input = "O=C(/C=C/c1ccccc1)c1nc2ccccc2n1Cc1ccc(F)cc1"
Reply | True

###

# System: NCI/ADR-RES ovarian
# protocol_details: NCI-60 one-dose screen, 48 h
# test_conditions: 10 µM
About 83,000 compounds went through this panel and 20% of them were active in at least one assay; those are over-represented in the sample as a whole. Activity calls are given as the source filed them. The calls were made as follows: active = growth percent below 10; inactive = the rest.
Allowed answers: TRUE = active, FALSE = inactive

Examples from the recorded data:
- compound: "CC(=O)Oc1ccccc1C(=O)NC([Se])=NC1CCCCC1"
  answer_label: "TRUE"
- compound: "CCC[Se]C(=O)c1ccc(C(=O)[Se]CCC)s1"
  answer_label: "TRUE"
- compound: "O=C(/C=C/c1ccccc1)c1nc2ccccc2n1Cc1ccc(F)cc1"
  answer_label: "TRUE"
- compound: "CC[C@]12C=CCN3CC[C@@]4(c5ccc(OC)cc5N(C)[C@H]4[C@@](O)(C(=O)OC)[C@@H]1OC(=O)CCCC[P+](c1ccc(C)cc1)(c1ccc(C)cc1)c1ccc(C)cc1)[C@@H]32"
  answer_label: "FALSE"

Ask | Returns: the outcome recorded for "O=C(/C=C/c1ccco1)c1nc2ccccc2n1Cc1ccc(F)cc1" in this assay.
Reply | FALSE

Ask | Returns: the outcome recorded for "C[C@H]1[C@H](OC(=O)CCC(=O)N(CCCc2cn(-c3ccc(C#N)cc3)nn2)CCNc2ccnc3cc(Cl)ccc23)O[C@@H]2OC3(C)CC[C@H]4[C@H](C)CC[C@@H]1[C@@]24OO3" in this assay.
Reply | FALSE

Ask | Returns: the outcome recorded for CCOP(=O)(OCC)C(NC(C)=O)C(=O)SCCN (stereo unspecified) in this assay.
Reply | FALSE

Ask | Returns: the outcome recorded for CCOC(=O)C1=C(Nc2ccccc2)C(=O)OC12C(=O)Nc1ccccc12 (stereo unspecified) in this assay.
Reply | FALSE

Ask | Returns: the outcome recorded for "C#CC[Se]C(=O)c1ccc2n[se]nc2c1" in this assay.
Reply | FALSE
